Assignment: determine reported melting point for the given compounds.

Problem: Need melting point of COC(=O)CC[C@@H](C)C1CCC2C3C([C@H](n4nnc5ccccc54)C(=O)[C@@]21C)[C@@]1(C)CC[C@@H](OC(C)=O)C[C@H]1C[C@H]3OC(C)=O (stereo partly shown) [Compound 8] , thanks.
Result: 106 to 109 °C

Problem: Need melting point of COC(=O)CC[C@@H](C)C1CCC2C3C([C@H](NC(=O)C4CCCN4C(=O)OC(C)(C)C)C(=O)[C@@]21C)[C@@]1(C)CC[C@@H](OC(C)=O)C[C@H]1C[C@H]3OC(C)=O (stereo partly shown) [Compound 9] , thanks.
Result: 114 to 118 °C

Problem: Need melting point of COC(=O)CC[C@@H](C)C1CCC2C3C([C@H](NC(=O)C4CCCN4)C(=O)[C@@]21C)[C@@]1(C)CC[C@@H](OC(C)=O)C[C@H]1C[C@H]3OC(C)=O (stereo partly shown) [Compound 6] , thanks.
Result: 102.6 to 103.8 °C

Problem: Need melting point of CCOC(=O)N[C@@H]1C(=O)[C@@]2(C)C(CCC2[C@H](C)CCC(=O)OC)C2C1[C@@]1(C)CC[C@@H](OC(C)=O)C[C@H]1C[C@H]2OC(C)=O (stereo partly shown) [Compound 5] , thanks.
Result: 82 to 85 °C

---

# System: Panc-1 (Human pancreas carcinoma cell line)
# PROTOCOL DETAILS: Anti-cancer screening, Panc-1 cell proliferation
# Assay type: cell-based
# EXPERIMENTAL CONDITIONS: concentration required to inhibit 50% of the cell proliferation
Assignment: determine reported IC50 for the given compounds.

Problem: GET /values?readout=IC50&system=Panc-1 (Human pancreas carcinoma cell line)&item= COC(=O)CC[C@@H](C)C1CCC2C3C([C@H](n4cc(-c5ccc(F)cc5)nn4)C(=O)[C@@]21C)[C@@]1(C)CC[C@@H](OC(C)=O)C[C@H]1C[C@H]3OC(C)=O (some centres unmarked) [Compound 3]
Result: > 100 µg/mL

Problem: GET /values?readout=IC50&system=Panc-1 (Human pancreas carcinoma cell line)&item= COC(=O)CC[C@@H](C)C1CCC2C3C([C@H](NC(=O)C(CO)NC(=O)OC(C)(C)C)C(=O)[C@@]21C)[C@@]1(C)CC[C@@H](OC(C)=O)C[C@H]1C[C@H]3OC(C)=O (some centres unmarked) [Compound 7]
Result: > 100 µg/mL

Problem: GET /values?readout=IC50&system=Panc-1 (Human pancreas carcinoma cell line)&item= CCCCCCc1cn([C@@H]2C(=O)[C@@]3(C)C(CCC3[C@H](C)CCC(=O)OC)C3C2[C@@]2(C)CC[C@@H](OC(C)=O)C[C@H]2C[C@H]3OC(C)=O)nn1 (some centres unmarked) [Compound 2]
Result: > 100 µg/mL

Problem: GET /values?readout=IC50&system=Panc-1 (Human pancreas carcinoma cell line)&item= COC(=O)CC[C@@H](C)C1CCC2C3C([C@H](NC(C)C)C(=O)[C@@]21C)[C@@]1(C)CC[C@@H](OC(C)=O)C[C@H]1C[C@H]3OC(C)=O (some centres unmarked) [Compound 10]
Result: > 100 µg/mL

Problem: GET /values?readout=IC50&system=Panc-1 (Human pancreas carcinoma cell line)&item= COC(=O)CC[C@@H](C)C1CCC2C3C([C@H](n4nnc5ccccc54)C(=O)[C@@]21C)[C@@]1(C)CC[C@@H](OC(C)=O)C[C@H]1C[C@H]3OC(C)=O (some centres unmarked) [Compound 8]
Result: 50 µg/mL

Problem: GET /values?readout=IC50&system=Panc-1 (Human pancreas carcinoma cell line)&item= COC(=O)CC[C@@H](C)C1CCC2C3C([C@H](n4cc(-c5ccccc5)nn4)C(=O)[C@@]21C)[C@@]1(C)CC[C@@H](OC(C)=O)C[C@H]1C[C@H]3OC(C)=O (some centres unmarked) [Compound 1]
Result: > 100 µg/mL

Problem: GET /values?readout=IC50&system=Panc-1 (Human pancreas carcinoma cell line)&item= CCOC(=O)N[C@@H]1C(=O)[C@@]2(C)C(CCC2[C@H](C)CCC(=O)OC)C2C1[C@@]1(C)CC[C@@H](OC(C)=O)C[C@H]1C[C@H]2OC(C)=O (some centres unmarked) [Compound 5]
Result: > 100 µg/mL

Problem: GET /values?readout=IC50&system=Panc-1 (Human pancreas carcinoma cell line)&item= COC(=O)CC[C@@H](C)C1CCC2C3C([C@H](NC(=O)C4CCCN4)C(=O)[C@@]21C)[C@@]1(C)CC[C@@H](OC(C)=O)C[C@H]1C[C@H]3OC(C)=O (some centres unmarked) [Compound 6]
Result: > 100 µg/mL

Problem: GET /values?readout=IC50&system=Panc-1 (Human pancreas carcinoma cell line)&item= COC(=O)CC[C@@H](C)C1CCC2C3C([C@H](n4cc(-c5ccccn5)nn4)C(=O)[C@@]21C)[C@@]1(C)CC[C@@H](OC(C)=O)C[C@H]1C[C@H]3OC(C)=O (some centres unmarked) [Compound 4]
Result: > 100 µg/mL

Problem: GET /values?readout=IC50&system=Panc-1 (Human pancreas carcinoma cell line)&item= COC(=O)CC[C@@H](C)C1CCC2C3C([C@H](NC(=O)C4CCCN4C(=O)OC(C)(C)C)C(=O)[C@@]21C)[C@@]1(C)CC[C@@H](OC(C)=O)C[C@H]1C[C@H]3OC(C)=O (some centres unmarked) [Compound 9]
Result: 15 µg/mL

Problem: GET /values?readout=IC50&system=Panc-1 (Human pancreas carcinoma cell line)&item= CC(=O)O[C@H]1C(=O)[C@@]2(C)[C@H]([C@H](OC(=O)c3ccccc3)[C@]3(O)C[C@H](OC(=O)[C@H](O)[C@@H](NC(=O)c4ccccc4)c4ccccc4)C(C)=C1C3(C)C)[C@]1(OC(C)=O)CO[C@@H]1C[C@@H]2O [Paclitaxel, reference compound]
Result: 0.128 µg/mL

Measured values drawn from patent US10000527B2 for this set.
